# assayTarget: sEH (Homo sapiens, UniProt P34913)
# Sequence (P34913 1-555): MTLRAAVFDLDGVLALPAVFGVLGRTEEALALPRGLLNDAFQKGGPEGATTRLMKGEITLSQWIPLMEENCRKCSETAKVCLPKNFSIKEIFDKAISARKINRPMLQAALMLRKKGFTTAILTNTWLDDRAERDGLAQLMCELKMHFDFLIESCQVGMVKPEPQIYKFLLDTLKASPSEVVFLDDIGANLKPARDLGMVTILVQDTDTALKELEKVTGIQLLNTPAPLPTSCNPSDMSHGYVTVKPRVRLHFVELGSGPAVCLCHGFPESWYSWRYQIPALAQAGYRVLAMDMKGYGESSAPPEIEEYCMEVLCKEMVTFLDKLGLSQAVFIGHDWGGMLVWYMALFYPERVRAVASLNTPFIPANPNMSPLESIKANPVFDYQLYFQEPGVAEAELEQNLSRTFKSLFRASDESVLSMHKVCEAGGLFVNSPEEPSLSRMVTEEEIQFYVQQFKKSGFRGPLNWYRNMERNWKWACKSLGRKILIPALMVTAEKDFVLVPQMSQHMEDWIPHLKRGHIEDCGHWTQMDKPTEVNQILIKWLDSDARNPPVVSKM
# testDescription: sEH inhibition (enzyme)
# Format: biochemical
readoutKind: pIC50
pIC50 here: minus log base 10 of the concentration, concentration in moles per litre.

[in] Which measured pIC50 belongs to CC(C)(C)c1ccc(C(=O)NCc2ccc(NS(C)(=O)=O)cc2Cl)cc1 , tested on sEH (Homo sapiens, UniProt P34913)?
[out] 8.40

----------
# assayTarget: UniProtKB Q96RI1
# Sequence (Q96RI1 whole entry, species assumed): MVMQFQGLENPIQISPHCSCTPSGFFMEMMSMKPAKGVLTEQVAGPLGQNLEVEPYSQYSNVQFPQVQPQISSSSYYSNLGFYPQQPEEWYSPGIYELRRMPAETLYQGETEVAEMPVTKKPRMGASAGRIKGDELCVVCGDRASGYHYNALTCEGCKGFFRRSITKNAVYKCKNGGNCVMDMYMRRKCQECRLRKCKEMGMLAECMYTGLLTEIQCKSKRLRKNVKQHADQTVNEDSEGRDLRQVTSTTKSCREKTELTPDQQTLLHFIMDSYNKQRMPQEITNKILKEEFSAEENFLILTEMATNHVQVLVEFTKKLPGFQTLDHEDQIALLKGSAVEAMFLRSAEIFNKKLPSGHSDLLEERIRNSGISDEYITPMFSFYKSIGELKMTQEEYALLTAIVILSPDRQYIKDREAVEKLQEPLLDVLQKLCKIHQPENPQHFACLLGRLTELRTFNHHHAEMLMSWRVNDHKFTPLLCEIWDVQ
# testDescription: FXR activation (EC50, efficacy vs GW4064, mode)
readoutKind: pEC50
pEC50 here: minus log base 10 of the concentration, concentration in moles per litre.

[in] Which measured pEC50 belongs to CC(C)(C)c1ccc(C(=O)NCc2ccc(NS(C)(=O)=O)cc2Cl)cc1 [DM509] , tested on UniProtKB Q96RI1?
[out] 7.70
